test: Inhibition of LPS-induced NO production in mouse BV-2 cells at 5 uM incubated for 24 hrs by Griess reagent based method relative to control; assay type: functional
Reported values of inhibition at 5 µM for individual entries
Give the value in % but do not write % after it.

Worked cases, answers included:
Consider the molecule Cc1c(C(=O)C(=O)N2CCCCC2)nn(-c2ccc(Cl)cc2Cl)c1-c1ccc(Cl)cc1 and give its measured inhibition at 5 µM. 20.3

Look at this molecule and give its reported inhibition at 5 µM. Cc1c(C(=O)C(=O)N2CCOCC2)nn(-c2ccc(Cl)cc2Cl)c1-c1ccc(Cl)cc1 26.1

Consider the molecule shown here: Cc1c(C(=O)C(=O)NCCO)nn(-c2ccc(Cl)cc2Cl)c1-c1ccc(Cl)cc1 What is its recorded inhibition at 5 µM? 62.8

Looking for the measured inhibition at 5 µM of Cc1c(C(=O)NN2CCCCC2)nn(-c2ccc(Cl)cc2Cl)c1-c1ccc(Cl)cc1 , can you help? 21.2

Turning to the following molecule.
What value of inhibition at 5 µM has been recorded for this entry: Cc1c(C(=O)C(=O)NC2CCCCC2)nn(-c2ccc(Cl)cc2Cl)c1-c1ccc(Cl)cc1 87.4
